target: recombinant human HDAC1 (Homo sapiens (Human)); test: Enzymatic screening, HDAC1 inhibition (fluorogenic FdL_G substrate)
Sequence (Q13547 whole entry): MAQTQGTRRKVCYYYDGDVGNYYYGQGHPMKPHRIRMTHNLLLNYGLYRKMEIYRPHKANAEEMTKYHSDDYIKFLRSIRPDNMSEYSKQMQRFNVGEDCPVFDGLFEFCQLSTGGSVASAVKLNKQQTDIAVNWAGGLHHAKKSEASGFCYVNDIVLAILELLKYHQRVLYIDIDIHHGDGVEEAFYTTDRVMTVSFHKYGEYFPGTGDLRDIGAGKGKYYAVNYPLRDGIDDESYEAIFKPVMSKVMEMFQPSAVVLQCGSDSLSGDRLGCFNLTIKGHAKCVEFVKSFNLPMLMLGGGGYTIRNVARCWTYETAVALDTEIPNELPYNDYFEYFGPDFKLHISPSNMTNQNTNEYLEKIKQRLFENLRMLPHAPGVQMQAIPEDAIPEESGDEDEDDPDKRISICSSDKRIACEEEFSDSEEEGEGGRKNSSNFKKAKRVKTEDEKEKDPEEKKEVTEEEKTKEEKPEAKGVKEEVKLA
Quick list: IC50 per entry.

[[record]]
molecule = "[2H]C([2H])(c1ccc(-c2nnc(C(F)F)o2)cc1)n1cc(-c2ccc(N)nc2)nn1 [compound 356]"
system_name = "recombinant human HDAC1 (Homo sapiens (Human))"
val = "> 1000 µM"


Q: Fill blank: measured IC50 of the molecule Nc1ccc(-c2cn(Cc3ccc(-c4nnc(C(F)F)o4)cc3)nn2)cc1 [compound 121] is ____.
A: > 200 µM

Q: Can you share its IC50? I mean this molecule: Nc1cccc(-c2nnn(Cc3ccc(-c4nnc(C(F)F)o4)cc3)n2)c1 [compound 129]
A: > 200 µM

Q: Quick check: IC50 of Nc1ncnc2sc(-c3cn(Cc4ccc(-c5nnc(C(F)F)o5)cc4)nn3)cc12 [compound 178] ?
A: > 200 µM

Q: Which IC50 is reported for this molecule? NC(=S)Nc1cccc(-c2cn(Cc3c(F)cc(-c4nnc(C(F)F)o4)cc3F)nn2)c1 [compound 175]
A: > 200 µM

###

biological target: recombinant human HDAC1 (Homo sapiens (Human)); test: Enzymatic screening, HDAC1 inhibition (fluorogenic FdL_G substrate)
parameter: IC50

Solved entries:
[[record]]
compound = "Nc1nccc2cc(-c3nnn(Cc4ccc(-c5nnc(C(F)F)o5)cc4Cl)n3)ccc12"
parameter = "IC50"
val = "1000 µM"

[[record]]
compound = "FC(F)c1nnc(-c2ccc(Cn3nnc(-c4ccc(N5CCNCC5)nc4)n3)cc2)o1"
parameter = "IC50"
val = "> 200 µM"

[[record]]
compound = "Nc1nc2ccc(-c3cn(Cc4ccc(-c5nnc(C(F)F)o5)cn4)cn3)cc2s1"
parameter = "IC50"
val = "> 1000 µM"


Q: IC50 for "CN(C)C(=O)Nc1cc(-c2nnn(Cc3ccc(-c4nnc(C(F)F)o4)cc3)n2)ccc1O" ?
A: > 200 µM

Q: // returns reported IC50 for input "FC(F)c1nnc(-c2ccc(Cn3nnc(-c4ccc5ccccc5n4)n3)cc2)o1"
A: > 200 µM

Q: // lookup IC50 for CC(c1ccc(-c2nnc(C(F)F)o2)c(F)c1)n1cc(-c2ccc(N)nc2)nn1 (stereo not drawn)
A: > 200 µM

Q: Name the reported IC50 value associated with the compound "Nc1ccc(-c2noc(Cc3ccc(-c4nnc(C(F)F)o4)c(F)c3)n2)cc1"
A: > 1000 µM

Q: Give its IC50 value. Item: "CNc1ccc(-c2nnn(Cc3ccc(-c4nnc(C(F)F)o4)cc3)n2)cc1N"
A: > 200 µM

Q: Would you kindly share the measured IC50 for CC(c1ccc(-c2nnc(C(F)F)o2)cc1)n1nnc(-c2ccc3c(c2)C(=O)N(C)CC3)n1 (stereo not drawn) ?
A: > 200 µM

Q: Consider the compound "CC(C)(C)OC(=O)N1CCn2ncc(-c3cccc(-c4nnn(Cc5ccc(-c6nnc(C(F)F)o6)cc5)n4)c3)c2C1" and give its measured IC50.
A: > 200 µM

Q: Recorded IC50 of "O=C1Nc2ccc(-c3cn(Cc4ccc(-c5nnc(C(F)F)o5)cn4)nn3)cc2NC12CCNCC2" , please.
A: > 200 µM

Q: For the compound "Nc1nc2ccc(-c3cn(Cc4ccc(-c5nnc(C(F)F)o5)c(F)c4F)nn3)cc2s1" , what IC50 is on record?
A: > 1000 µM

Q: Please give the measured IC50 for this compound: "FCc1nnc(-c2ccc(Cc3nc(-c4ccc(NC5=NCCN5)cc4)no3)cc2)o1"
A: > 1000 µM

Q: Bench note: what IC50 did "O=C1Nc2cc(-c3cn(Cc4ccc(-c5nnc(C(F)F)o5)cn4)nn3)ccc2NC12CCNCC2" show?
A: 123 µM

Q: Suppose we examine the compound "FC(F)c1nnc(-c2ccc(Cn3nnc(-c4ccc5ccncc5c4)n3)cc2)o1" ; what IC50 value has been reported?
A: > 200 µM

###

test: Stability to Phase I metabolism in human S9 liver fraction; conditions: after 90 minutes, 37° C.
parameter: residual percentage in HUMAN S9 FRACTION (%)

Examples with answers:
[[record]]
compound = "Cn1c(N)nc2cc(-c3cn(Cc4ccc(-c5nnc(C(F)F)o5)cc4)nn3)ccc21"
val = 88

[[record]]
compound = "Cc1ncc(-c2nnn(Cc3ccc(-c4nnc(C(F)F)o4)cc3)n2)cc1N"
val = 99

[[record]]
compound = "CCC[C@@H](c1ccc(-c2nnc(C(F)F)o2)cc1)n1cc(-c2ccc(N)nc2)nn1 (stereo in doubt) [compound 193]"
val = 87

[[record]]
compound = "CC[C@H](c1ccc(-c2nnc(C(F)F)o2)cc1)n1cc(-c2ccc(N)nc2)nn1 (stereo in doubt)"
val = 95

[[record]]
compound = "CC(=O)c1cccc(-c2nnn(Cc3ccc(-c4nnc(C(F)F)o4)cc3)n2)c1"
val = 87

[[record]]
compound = "COc1ncccc1-c1cn(Cc2ccc(-c3nnc(C(F)F)o3)cc2)nn1"
val = 83


I. Nc1ccc(-c2cn(Cc3cc(F)c(-c4nnc(C(F)F)o4)cc3F)nn2)cn1
II. CCNc1ccc(-c2nnn(Cc3ccc(-c4nnc(C(F)F)o4)cc3)n2)cn1
Q: In the pair I and II , the larger recorded residual percentage in HUMAN S9 FRACTION belongs to which? Indicate which entry you chose by stating its label.
A: I

###

biological target: recombinant human HDAC1 (Homo sapiens (Human)); experiment: Enzymatic screening, HDAC1 inhibition (fluorogenic FdL_G substrate)
parameter: IC50

[[record]]
compound = "[2H]C([2H])(c1ccc(-c2nnc(C(F)F)o2)c(F)c1F)n1cc(-c2ccc(N)nc2)nn1 [compound 385]"
system_name = "recombinant human HDAC1 (Homo sapiens (Human))"
val = "1000 µM"

[[record]]
compound = "Fc1cc(-c2nnn(Cc3ccc(-c4nnc(C(F)F)o4)cc3)n2)ccc1N1CCNCC1 [compound 224]"
system_name = "recombinant human HDAC1 (Homo sapiens (Human))"
val = "> 200 µM"

[[record]]
compound = "FC(F)c1nnc(-c2ccc(Cn3cc(-c4cnc5cccnn45)nn3)nc2)o1 [compound 74]"
system_name = "recombinant human HDAC1 (Homo sapiens (Human))"
val = "> 200 µM"

[[record]]
compound = "Nc1ccc(-c2nnn(Cc3c(F)cc(-c4nnc(C(F)F)o4)cc3F)n2)cn1 [compound 45]"
system_name = "recombinant human HDAC1 (Homo sapiens (Human))"
val = "> 200 µM"

[[record]]
compound = "O=C1NCc2ccc(-c3nnn(Cc4ncc(-c5nnc(C(F)F)o5)cn4)n3)cc21 [compound 107]"
system_name = "recombinant human HDAC1 (Homo sapiens (Human))"
val = "> 200 µM"

[[record]]
compound = "NC(=O)c1cccc(-c2nc(Cc3ccc(-c4nnc(C(F)F)o4)cc3)no2)c1 [compound 262]"
system_name = "recombinant human HDAC1 (Homo sapiens (Human))"
val = "> 200 µM"

[[record]]
compound = "Cn1c(N)nc2cc(-n3cc(Cc4ccc(-c5nnc(C(F)F)o5)cc4)nn3)ccc21 [compound 414]"
system_name = "recombinant human HDAC1 (Homo sapiens (Human))"
val = "1000 µM"

[[record]]
compound = "CN(C)c1nc2cc(-c3nnn(Cc4ccc(-c5nnc(C(F)F)o5)cc4)n3)ccc2o1 [compound 249]"
system_name = "recombinant human HDAC1 (Homo sapiens (Human))"
val = "> 200 µM"

[[record]]
compound = "Nc1nc2cc(-c3cn(Cc4ccc(-c5nnc(C(F)F)o5)cc4)cn3)ccc2s1 [compound 300]"
system_name = "recombinant human HDAC1 (Homo sapiens (Human))"
val = "> 200 µM"

[[record]]
compound = "Nc1nc2ccc(-c3cn(Cc4ccc(-c5nnc(C(F)F)o5)cn4)nn3)cc2s1 [Compd. 1]"
system_name = "recombinant human HDAC1 (Homo sapiens (Human))"
val = "> 200 µM"


Q: API: value(readout=IC50, system=recombinant human HDAC1 (Homo sapiens (Human))) for record Nc1cc(-c2nnn(Cc3c(F)cc(-c4nnc(C(F)F)o4)cc3F)n2)ccc1OC(=O)N1CCOCC1 [compound 160]
A: > 200 µM

Q: Record Fc1cc(Cn2cnc(-c3ccc(NC4=NCCN4)cc3)c2)ccc1-c1nnc(C(F)F)o1 [compound 360] : what is its IC50 with recombinant human HDAC1 (Homo sapiens (Human))?
A: > 1000 µM

Q: Item: FC(F)c1nnc(-c2ccc(Cn3cc(-c4ccc(NC5=NCCN5)cc4)nn3)nc2)o1 [compd. 24] Test system: recombinant human HDAC1 (Homo sapiens (Human)) Read-out: IC50 Value: ?
A: > 200 µM

Q: Query the reported IC50 for recombinant human HDAC1 (Homo sapiens (Human)); item: O=[N+]([O-])c1ccccc1-c1nnn(Cc2ccc(-c3nnc(C(F)F)o3)cc2)n1 [compound 150]
A: > 200 µM

Q: Form field - read-out: IC50; system: recombinant human HDAC1 (Homo sapiens (Human)); submitted item: Nc1nc2ccc(-c3cn(Cc4ccc(-c5nnc(C(F)F)o5)cc4)cn3)cc2s1 [compound 306]
A: > 1000 µM

Q: What measured IC50 is associated with FC(F)c1nnc(-c2ccc(Cn3nnc(-c4cncc5ccccc45)n3)cc2)o1 [compound 118] on recombinant human HDAC1 (Homo sapiens (Human))?
A: > 200 µM

Q: What measured IC50 is associated with CN(C)c1ccc(-c2cn(Cc3ccc(-c4nnc(C(F)F)o4)cc3)nn2)cc1 [compound 281] on recombinant human HDAC1 (Homo sapiens (Human))?
A: > 200 µM
